system-tested: mTOR (Homo sapiens, UniProt P42345)
Construct: FLAG; made in house
Sequence (P42345 1362-2549): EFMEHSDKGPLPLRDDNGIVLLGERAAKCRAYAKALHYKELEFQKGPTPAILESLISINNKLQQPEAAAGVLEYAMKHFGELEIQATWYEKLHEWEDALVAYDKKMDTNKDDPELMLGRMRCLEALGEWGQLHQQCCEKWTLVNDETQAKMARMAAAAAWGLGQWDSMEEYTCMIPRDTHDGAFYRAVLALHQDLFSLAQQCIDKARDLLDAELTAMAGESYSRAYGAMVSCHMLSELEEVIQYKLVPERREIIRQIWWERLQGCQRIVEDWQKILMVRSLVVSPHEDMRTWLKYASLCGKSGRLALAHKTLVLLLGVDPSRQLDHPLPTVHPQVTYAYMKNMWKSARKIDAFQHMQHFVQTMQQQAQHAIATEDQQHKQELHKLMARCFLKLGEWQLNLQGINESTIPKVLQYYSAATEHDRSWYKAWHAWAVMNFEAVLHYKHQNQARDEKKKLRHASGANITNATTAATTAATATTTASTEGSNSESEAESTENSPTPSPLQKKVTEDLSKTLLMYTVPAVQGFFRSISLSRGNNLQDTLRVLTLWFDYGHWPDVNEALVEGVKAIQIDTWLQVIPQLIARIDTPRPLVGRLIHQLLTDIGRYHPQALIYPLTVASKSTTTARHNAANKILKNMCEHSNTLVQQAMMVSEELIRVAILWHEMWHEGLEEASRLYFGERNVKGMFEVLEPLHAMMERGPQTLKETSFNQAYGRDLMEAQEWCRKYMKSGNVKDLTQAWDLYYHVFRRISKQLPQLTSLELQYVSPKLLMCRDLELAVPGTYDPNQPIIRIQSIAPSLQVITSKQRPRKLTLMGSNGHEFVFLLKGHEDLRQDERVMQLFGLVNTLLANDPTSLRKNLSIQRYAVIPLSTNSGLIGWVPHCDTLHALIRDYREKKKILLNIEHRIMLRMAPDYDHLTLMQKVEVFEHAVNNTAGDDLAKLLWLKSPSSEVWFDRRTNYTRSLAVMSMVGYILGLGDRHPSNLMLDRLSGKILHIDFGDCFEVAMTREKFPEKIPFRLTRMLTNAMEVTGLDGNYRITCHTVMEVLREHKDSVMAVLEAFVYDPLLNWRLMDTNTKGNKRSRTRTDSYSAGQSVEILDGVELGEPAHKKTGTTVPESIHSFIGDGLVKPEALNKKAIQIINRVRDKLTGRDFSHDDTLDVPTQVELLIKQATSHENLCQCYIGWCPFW
measurement-notes: In Vitro mTOR Kinase Assay (Echo), Test (a)(ii)
Assay type: biochemical
test-parameters: table of enzyme assay Test (a)(ii); read-out: Test (a)(ii) IC50
Record form. Attribute: IC50. Fill in for each entry.

>>> measured("C[C@H](CO)NC(=O)Nc1ccc(-c2nc(N3CCOC[C@@H]3C)cc(C3(S(=O)(=O)c4nccs4)CCC3)n2)cc1 [Example 98l]")
"7.89 nM"
>>> measured("CCS(=O)(=O)C1(c2cc(N3CCOC[C@@H]3C)nc(-c3ccc(NC(=O)NCCCO)cc3)n2)CCC1 [Example 87b]")
"17.7 nM"
>>> measured("CCS(=O)(=O)C1(c2cc(N3CCOC[C@@H]3C)nc(-c3ccc(NC(=O)N[C@@H](C)CO)cc3)n2)CCC1 [Example 87e]")
"10.3 nM"
>>> measured("C[C@H]1COCCN1c1cc(C2(S(=O)(=O)C3CC3)CC2)nc(-c2ccc(NC(=O)NC3CC3)nc2)n1")
"46.5 nM"
>>> measured("CCNC(=O)Nc1ccc(-c2nc(N3CCOC[C@@H]3C)cc(C3(S(=O)(=O)c4ccc(Cl)cc4)CC3)n2)cc1 [Example 27f]")
"0.997 nM"
>>> measured("Cn1cc(NC(=O)Nc2ccc(-c3nc(N4CCOCC4)cc(C4(S(=O)(=O)C5CC5)CC4)n3)cc2)cn1 [Example 13i]")
"2.75 nM"
>>> measured("C[C@H]1COCCN1c1cc(C2(S(=O)(=O)c3ccc(Cl)cc3)CC2)nc(-c2ccc(NC(=O)NC(C)(C)CO)cc2)n1 [Example 27k]")
"4.62 nM"
>>> measured("C[C@H]1COCCN1c1cc(C2(S(=O)(=O)CCCO)CC2)nc(-c2ccc(NC(=O)NC3(C)CC3)cc2)n1 [Example 36cl]")
"68.1 nM"

Okay, here is my list. What is IC50 for each of these?
1. Cc1csc(S(=O)(=O)C2(c3cc(N4CCOC[C@@H]4C)nc(-c4ccc(NC(=O)NCCF)cc4)n3)CC2)n1 [Example 64ae]
2. C[C@H]1COCCN1c1cc(C2(S(=O)(=O)CCCO)CCC2)nc(-c2ccc(NC(=S)NCc3ncc[nH]3)cc2)n1 [Example 99c]
3. C[C@H]1COCCN1c1cc(C2(S(=O)(=O)CCCO)CCC2)nc(-c2ccc(NC(=O)Nc3cnn(C)c3)cc2)n1 [Example 43d]
4. CC(C)NC(=O)Nc1ccc(-c2nc(N3CCOC[C@@H]3C)cc(C3(S(=O)(=O)CCCO)CC3)n2)cc1
5. C[C@H]1COCCN1c1cc(C2(S(=O)(=O)c3ccccc3F)CC2)nc(-c2ccc(NC(=O)NC3CC3)cc2)n1 [Example 58a]
6. CNC(=O)Nc1ccc(-c2nc(N3CCOC[C@@H]3C)cc(C3(S(=O)(=O)c4ccccc4F)CC3)n2)cc1

1. 2.13 nM
2. 239 nM
3. 11 nM
4. 4.52 nM
5. 3.39 nM
6. 1.15 nM

Please give IC50, item by item, for the list that follows.
1. C[C@H]1COCCN1c1cc(C2(S(C)(=O)=O)CCC2)nc(-c2ccc(NC(=S)NCCCO)cc2)n1 [Example 62d]
2. C[C@H]1COCCN1c1cc(C2(S(=O)(=O)c3cc(F)cc(F)c3)CC2)nc(-c2ccc(NC(=O)NC3CC3)cc2)n1
3. C[C@H]1COCCN1c1cc(C2(S(=O)(=O)c3ccccc3)CC2)nc(-c2ccc(NC(=O)Nc3ccon3)cc2)n1 [Example 36dz]
4. Cc1nc(C)c(S(=O)(=O)C2(c3cc(N4CCOC[C@@H]4C)nc(-c4ccc(NC(=O)NCCF)cc4)n3)CC2)s1 [Example 78e]
5. C[C@H]1COCCN1c1cc(C2(S(=O)(=O)c3cccc(F)c3)CC2)nc(-c2ccc(NC(=O)NCCF)cc2)n1 [Example 53c]
6. C[C@H]1COCCN1c1cc(C2(S(=O)(=O)c3ccccn3)CC2)nc(-c2ccc(NC(=O)NC3CC3)cc2)n1

1. 22 nM
2. 1.31 nM
3. 2.77 nM
4. 23.9 nM
5. 0.688 nM
6. 1.87 nM

# map each molecule to its IC50
1. CCCNC(=O)Nc1ccc(-c2nc(N3CCOC[C@@H]3C)cc(C3(S(C)(=O)=O)CCCC3)n2)cc1
2. CCCNC(=O)Nc1ccc(-c2nc(N3CCOC[C@@H]3C)cc(C3(S(=O)(=O)CCCO)CC3)n2)cc1 [Example 31k]
3. C[C@H]1COCCN1c1cc(C2(S(=O)(=O)c3ccncc3)CCC2)nc(-c2ccc(NC(=O)NCc3ncc[nH]3)cc2)n1 [Example 83d]
4. C[C@H]1COCCN1c1cc(C2(S(=O)(=O)C3CC3)CCC2)nc(-c2ccc(NC(=O)NCCC#N)cc2)n1 [Example 36g]

1.46 nM
1.91 nM
47.2 nM
8.41 nM
